Would you kindly list MIC90 for each of these compounds?
Tested on: Escherichia coli
method notes: Antibacterial activity against Escherichia coli ATCC 25922 after overnight incubation by microbroth dilution method
Format: functional

compound	target or test system	MIC90
Cc1ncc([N+](=O)[O-])n1CCOC(=O)C(N)C(C)C (stereo not given)	Escherichia coli	473 µM
COc1nc(Nc2nc(N)ncc2Cc2cc(OC)c(OC)c(OC)c2)nc(OC(=O)C(N)C(C)C)n1 (stereo not given)	Escherichia coli	62.2 µM

For each of the compounds below, note its MIC90.
1. COc1nc(OC(=O)C(N)Cc2ccccc2)nc(Oc2c(OC)cc(Cc3cnc(N)nc3N)cc2OC)n1 (stereo not given)
2. COc1nc(OCCn2c([N+](=O)[O-])cnc2C)nc(OC(=O)C(N)C(C)C)n1 (stereo not given)
3. COc1nc(Nc2nc(N)ncc2Cc2cc(OC)c(OC)c(OC)c2)nc(OC(=O)C(N)Cc2c[nH]c3ccccc23)n1 (stereo not given)

1: 3.6 µM; 2: 67.3 µM; 3: 53.2 µM

----------
Provide the reported MIC90 of each item.
Test system: Escherichia coli
method notes: Antibacterial activity against Escherichia coli ATCC 25922 after overnight incubation by microbroth dilution method
Type: functional

Example compounds with recorded MIC90:
compound	target or test system	MIC90
COc1nc(OC(=O)C(N)Cc2c[nH]c3ccccc23)nc(Oc2c(OC)cc(Cc3cnc(N)nc3N)cc2OC)n1 (stereo not given)	Escherichia coli	1.1 µM
COc1nc(OC(=O)C(N)C(C)C)nc(Oc2c(OC)cc(Cc3cnc(N)nc3N)cc2OC)n1 (stereo not given)	Escherichia coli	6.6 µM

Would you mind giving MIC90 for every compound in the list below?
1. Cc1ncc([N+](=O)[O-])n1CCOC(=O)C(N)Cc1c[nH]c2ccccc12 (stereo not given)
2. COc1nc(Nc2nc(N)ncc2Cc2cc(OC)c(OC)c(OC)c2)nc(OC(=O)C(N)Cc2ccccc2)n1 (stereo not given)
3. COc1nc(OCCn2c([N+](=O)[O-])cnc2C)nc(OC(=O)C(N)Cc2c[nH]c3ccccc23)n1 (stereo not given)
4. COc1cc(Cc2cnc(N)nc2NC(=O)C(N)C(C)C)cc(OC)c1OC (stereo not given)

74.4 µM
47.3 µM
2 µM
164 µM

List the reported MIC90 of each compound below.
1. COc1cc(Cc2cnc(N)nc2N)cc(OC)c1OC
2. COc1nc(NNC(=O)c2ccncc2)nc(OC(=O)C(N)C(C)C)n1 (stereo not given)
3. COc1cc(Cc2cnc(N)nc2NC(=O)C(N)Cc2ccccc2)cc(OC)c1OC (stereo not given)

1: 55.1 µM; 2: 59 µM; 3: 73.1 µM

Source of measurements: ChEMBL document CHEMBL4251638
